Biological target: RBD-mFc (UniProt P0DTC2 319-591)
Test: ELISA
Catalogue of EC50 values
The response must be a number in nM with no trailing unit.

STE73-2C2 (antibody, V domains shown) VH: QVQLVESGGGLVQPGGSLRLSCAASGITVSSNYMSWVRQAPGKGLEWVSVIYSGGSTFYADSVKGRFTISRDNSKNTLYLQMNSLRAEDTGVYYCARGHDNLDYWGQGTLVTVSS VL: LPVLTQPHSVSESPGKTVIISCTGSSDSIASNYVQWYQQRPGSAPTTVIYEDNKRPSGVPDRFSGSTDSSSNSASLTISGLKTEDEAEYYCQSYDSNNHWVFGGGTKLTVL
9.6
STE73-2B2 (antibody, V domains shown) VH: QVQLVQSGAEVKKPGASVKVSCKASGYTFTGYYMHWVRQAPGQGLEWMGWINPNSGGTNYAQKFQGRVTITRDTSASTAYMELSSLRSEDTAVYYCARVSGWYFGAFDIWGQGTMVTVSS VL: LPVLTQPHSLSESPGKTVNISCTGSSGSIASNYVQWYQQRPGSAPTTVIYEDSHRPSGVPDRFSGSIDSSSNSASLSISGLKTEDEADYYCQSYDSSNNQWVFGGGTKLTVL
0.5
STE73-6B10 (antibody, V domains shown) VH: QVQLVQSGAEVKKPGASVKVSCKASGYTFTSYGISWVRQAPGQGLEWMGWINPNSGGTNYAQKFQGRVTMTRDTSISTAYMELSRLRSDDTAVYYCARDRLRYGDSGSYYYYGMDVWGQGTTVTVSS VL: QSALTQPRSVSGSPGQSVTISCTGTSSDVGGYNYVSWYQQHPGKAPKLLISEVTRRPSGVPDRFSGSKSGNTASLTVSGLQTEDEADYYCGSYAGSNTWVFGGGTKLTVL
17.3
STE73-6C1 (antibody, V domains shown) VH: QVQLVQSGGGVVQPGRSLRLSCAASGFTFSSYAMHWVRQAPGKGLEWVAVISYDGSNKYYADSVKGRFTISRDNSKNTLYLQMNSLRAEDTAVYYCARSYVGGMDVWGQGTTVTVSS VL: QLVLTQSPSVSGAPGQSVTISCTGTDSNIGAGYNVHWYQQLPGAAPKLIISYTDNRPSGVPDRFSGSKSGTSASLAITGLQAEDEADYYCQSSDRTLVGSLFGTGTKVTVL
2
STE73-2G8 (antibody, V domains shown) VH: QVQLVQSGGGLVKPGGSLRLSCAASGITVSSNYMSWVRQAPGKGLEWVSILYSGGTTFYTDSVKGRFTISRDNSKNTLHLQMNSLRAEDTAVYYCARWSGTYYDYWGQGTLVTVSS VL: SSELTQDPAVSVALGQTVRITCQGDSLRSYYASWYQQKPGQAPVLVIYGKNNRPSGIPDRFSGSSSGNTASLTITGAQAEDEADYYCNSRDSTNDPVLFGAGTKLTVL
0.7
STE73-9G3 (antibody, V domains shown) VH: QVQLQESGGGLVQPGGSLRLSCAASGFTFSSYAMSWVRQAPGKGLEWVSAISGSGGSTYYADSVKGRFTISRDNSKNTLYLQMNSLRAEDTAVYYCARDLVLGSGSSNDWGRGTLVTVSS VL: QPVLTQPPSVSGAPGQSVTISCTGTDSNIGAGYNVHWYQQLPGAAPKLIISYTDNRPSGVPDRFSGSKSGTSASLAITGLQAEDEADYYCQSSDRTLVGSLFGTGTKVTVL
1.4

Consider now this further binder.
Name the recorded EC50 for STE73-2E9 (antibody, V domains shown) VH: QVQLVQSGAEVKKPGASVKVSCKASGYTFTSYGISWVRQAPGQGLEWMGWISAYNGNTNYAQKLQGRVTMTTDTSTSTAYMELRSLRSDDTAVYYCARGKFDYWGQGTLVTVSS VL: QSVLTQPPSVSEAPSQRVTISCSGSSSNIGNNAVNWYQQLPGKAPKLLIYYDDVLPSGVSDRFSGSKSGTSASLAISGLQSGDEADYYCAAWDDSLSGVVFGGGTKLTVL .
0.7
